- System: PPARg:RXRa 90nM:30nM, anti-RXR (NR concentration 90 nM, RXRa partner concentration 30 nM)
- testDetails: PBM binding z-score (relative to random genomic background probes); higher = stronger binding; sequences stand for … in GC…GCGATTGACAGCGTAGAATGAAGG
measurementLabel: PBM binding z-score

{"sequenceText": "AGTCAAAGTTTAGGACGAGGTAACGTAAAGCACG", "studySystem": "PPARg:RXRa 90nM:30nM, anti-RXR (NR concentration 90 nM, RXRa partner concentration 30 nM)", "recordedMeasurement": 0.625}
{"sequenceText": "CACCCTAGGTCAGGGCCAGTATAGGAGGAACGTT", "studySystem": "PPARg:RXRa 90nM:30nM, anti-RXR (NR concentration 90 nM, RXRa partner concentration 30 nM)", "recordedMeasurement": 0.354}
{"sequenceText": "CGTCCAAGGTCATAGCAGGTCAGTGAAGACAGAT", "studySystem": "PPARg:RXRa 90nM:30nM, anti-RXR (NR concentration 90 nM, RXRa partner concentration 30 nM)", "recordedMeasurement": 4.17}
{"sequenceText": "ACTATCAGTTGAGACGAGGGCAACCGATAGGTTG", "studySystem": "PPARg:RXRa 90nM:30nM, anti-RXR (NR concentration 90 nM, RXRa partner concentration 30 nM)", "recordedMeasurement": -0.0981}
{"sequenceText": "CCTAGCAGGCCAATCTGGGTCAATCAAGGCTTGA", "studySystem": "PPARg:RXRa 90nM:30nM, anti-RXR (NR concentration 90 nM, RXRa partner concentration 30 nM)", "recordedMeasurement": 1}
{"sequenceText": "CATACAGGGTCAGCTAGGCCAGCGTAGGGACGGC", "studySystem": "PPARg:RXRa 90nM:30nM, anti-RXR (NR concentration 90 nM, RXRa partner concentration 30 nM)", "recordedMeasurement": 2.04}
{"sequenceText": "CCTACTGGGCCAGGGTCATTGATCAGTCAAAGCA", "studySystem": "PPARg:RXRa 90nM:30nM, anti-RXR (NR concentration 90 nM, RXRa partner concentration 30 nM)", "recordedMeasurement": 2.87}
{"sequenceText": "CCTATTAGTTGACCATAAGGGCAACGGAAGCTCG", "studySystem": "PPARg:RXRa 90nM:30nM, anti-RXR (NR concentration 90 nM, RXRa partner concentration 30 nM)", "recordedMeasurement": 0.476}
{"sequenceText": "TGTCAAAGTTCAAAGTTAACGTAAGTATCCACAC", "studySystem": "PPARg:RXRa 90nM:30nM, anti-RXR (NR concentration 90 nM, RXRa partner concentration 30 nM)", "recordedMeasurement": 7.29}
{"sequenceText": "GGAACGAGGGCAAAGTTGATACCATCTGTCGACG", "studySystem": "PPARg:RXRa 90nM:30nM, anti-RXR (NR concentration 90 nM, RXRa partner concentration 30 nM)", "recordedMeasurement": 7.6}
{"sequenceText": "CTACCAAGGTGCACAAGGTCGTTGATTACTATTC", "studySystem": "PPARg:RXRa 90nM:30nM, anti-RXR (NR concentration 90 nM, RXRa partner concentration 30 nM)", "recordedMeasurement": 0.246}
{"sequenceText": "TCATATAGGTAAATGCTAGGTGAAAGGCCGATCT", "studySystem": "PPARg:RXRa 90nM:30nM, anti-RXR (NR concentration 90 nM, RXRa partner concentration 30 nM)", "recordedMeasurement": 3.95}
{"sequenceText": "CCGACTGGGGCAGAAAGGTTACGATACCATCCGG", "studySystem": "PPARg:RXRa 90nM:30nM, anti-RXR (NR concentration 90 nM, RXRa partner concentration 30 nM)", "recordedMeasurement": 2.25}
{"sequenceText": "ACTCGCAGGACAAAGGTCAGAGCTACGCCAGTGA", "studySystem": "PPARg:RXRa 90nM:30nM, anti-RXR (NR concentration 90 nM, RXRa partner concentration 30 nM)", "recordedMeasurement": 6.99}
{"sequenceText": "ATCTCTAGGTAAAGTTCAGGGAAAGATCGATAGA", "studySystem": "PPARg:RXRa 90nM:30nM, anti-RXR (NR concentration 90 nM, RXRa partner concentration 30 nM)", "recordedMeasurement": 4.35}
{"sequenceText": "CGAACTAGGTCAAGGGCAGTGAATCTCCGCACGC", "studySystem": "PPARg:RXRa 90nM:30nM, anti-RXR (NR concentration 90 nM, RXRa partner concentration 30 nM)", "recordedMeasurement": 6.89}
{"sequenceText": "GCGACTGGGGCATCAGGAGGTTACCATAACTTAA", "studySystem": "PPARg:RXRa 90nM:30nM, anti-RXR (NR concentration 90 nM, RXRa partner concentration 30 nM)", "recordedMeasurement": 0.599}
{"sequenceText": "TCATATAGGTAAACATGTGAAAGTCCGTAAGTTA", "studySystem": "PPARg:RXRa 90nM:30nM, anti-RXR (NR concentration 90 nM, RXRa partner concentration 30 nM)", "recordedMeasurement": 3.22}
{"sequenceText": "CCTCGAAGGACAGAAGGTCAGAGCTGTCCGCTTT", "studySystem": "PPARg:RXRa 90nM:30nM, anti-RXR (NR concentration 90 nM, RXRa partner concentration 30 nM)", "recordedMeasurement": 0.107}
{"sequenceText": "ACTTACGGGTCAACGAGGTTAGAGCACGCGTATA", "studySystem": "PPARg:RXRa 90nM:30nM, anti-RXR (NR concentration 90 nM, RXRa partner concentration 30 nM)", "recordedMeasurement": 4.13}
{"sequenceText": "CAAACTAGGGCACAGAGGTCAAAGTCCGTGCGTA", "studySystem": "PPARg:RXRa 90nM:30nM, anti-RXR (NR concentration 90 nM, RXRa partner concentration 30 nM)", "recordedMeasurement": 6.59}
{"sequenceText": "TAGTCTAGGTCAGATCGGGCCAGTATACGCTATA", "studySystem": "PPARg:RXRa 90nM:30nM, anti-RXR (NR concentration 90 nM, RXRa partner concentration 30 nM)", "recordedMeasurement": 1.92}
{"sequenceText": "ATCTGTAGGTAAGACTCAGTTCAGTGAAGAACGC", "studySystem": "PPARg:RXRa 90nM:30nM, anti-RXR (NR concentration 90 nM, RXRa partner concentration 30 nM)", "recordedMeasurement": -0.0173}
{"sequenceText": "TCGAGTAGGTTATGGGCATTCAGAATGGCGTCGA", "studySystem": "PPARg:RXRa 90nM:30nM, anti-RXR (NR concentration 90 nM, RXRa partner concentration 30 nM)", "recordedMeasurement": 1.13}
{"sequenceText": "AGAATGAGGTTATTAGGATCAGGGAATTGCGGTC", "studySystem": "PPARg:RXRa 90nM:30nM, anti-RXR (NR concentration 90 nM, RXRa partner concentration 30 nM)", "recordedMeasurement": 1.59}
{"sequenceText": "GCGACTGGGGCATCAGCGGGTTACCATAACTTAA", "studySystem": "PPARg:RXRa 90nM:30nM, anti-RXR (NR concentration 90 nM, RXRa partner concentration 30 nM)", "recordedMeasurement": 0.237}
{"sequenceText": "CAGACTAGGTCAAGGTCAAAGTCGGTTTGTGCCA", "studySystem": "PPARg:RXRa 90nM:30nM, anti-RXR (NR concentration 90 nM, RXRa partner concentration 30 nM)", "recordedMeasurement": 6.78}
{"sequenceText": "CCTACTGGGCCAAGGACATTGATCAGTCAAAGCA", "studySystem": "PPARg:RXRa 90nM:30nM, anti-RXR (NR concentration 90 nM, RXRa partner concentration 30 nM)", "recordedMeasurement": 0.46}
{"sequenceText": "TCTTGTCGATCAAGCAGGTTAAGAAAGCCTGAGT", "studySystem": "PPARg:RXRa 90nM:30nM, anti-RXR (NR concentration 90 nM, RXRa partner concentration 30 nM)", "recordedMeasurement": 1.95}
{"sequenceText": "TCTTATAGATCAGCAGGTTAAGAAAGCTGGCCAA", "studySystem": "PPARg:RXRa 90nM:30nM, anti-RXR (NR concentration 90 nM, RXRa partner concentration 30 nM)", "recordedMeasurement": 2.09}
{"sequenceText": "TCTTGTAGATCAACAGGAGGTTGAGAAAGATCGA", "studySystem": "PPARg:RXRa 90nM:30nM, anti-RXR (NR concentration 90 nM, RXRa partner concentration 30 nM)", "recordedMeasurement": 2.24}
{"sequenceText": "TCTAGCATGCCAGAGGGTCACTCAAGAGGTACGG", "studySystem": "PPARg:RXRa 90nM:30nM, anti-RXR (NR concentration 90 nM, RXRa partner concentration 30 nM)", "recordedMeasurement": 1.76}
{"sequenceText": "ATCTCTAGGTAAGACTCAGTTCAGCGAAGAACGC", "studySystem": "PPARg:RXRa 90nM:30nM, anti-RXR (NR concentration 90 nM, RXRa partner concentration 30 nM)", "recordedMeasurement": 0.278}
{"sequenceText": "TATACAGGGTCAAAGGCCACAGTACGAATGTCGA", "studySystem": "PPARg:RXRa 90nM:30nM, anti-RXR (NR concentration 90 nM, RXRa partner concentration 30 nM)", "recordedMeasurement": 8.74}
{"sequenceText": "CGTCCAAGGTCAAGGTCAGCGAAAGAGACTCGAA", "studySystem": "PPARg:RXRa 90nM:30nM, anti-RXR (NR concentration 90 nM, RXRa partner concentration 30 nM)", "recordedMeasurement": 5.28}
{"sequenceText": "CCGACTGGGGCGGAAAGGTTACCATACCATCCGG", "studySystem": "PPARg:RXRa 90nM:30nM, anti-RXR (NR concentration 90 nM, RXRa partner concentration 30 nM)", "recordedMeasurement": 1.99}
{"sequenceText": "TCTGCTAGGTCAACGATGCTCAGCTAATCTGCTA", "studySystem": "PPARg:RXRa 90nM:30nM, anti-RXR (NR concentration 90 nM, RXRa partner concentration 30 nM)", "recordedMeasurement": 2.32}
{"sequenceText": "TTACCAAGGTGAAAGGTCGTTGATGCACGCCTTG", "studySystem": "PPARg:RXRa 90nM:30nM, anti-RXR (NR concentration 90 nM, RXRa partner concentration 30 nM)", "recordedMeasurement": 8.46}
{"sequenceText": "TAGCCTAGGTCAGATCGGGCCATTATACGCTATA", "studySystem": "PPARg:RXRa 90nM:30nM, anti-RXR (NR concentration 90 nM, RXRa partner concentration 30 nM)", "recordedMeasurement": 0.0184}
{"sequenceText": "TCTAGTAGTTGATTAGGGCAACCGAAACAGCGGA", "studySystem": "PPARg:RXRa 90nM:30nM, anti-RXR (NR concentration 90 nM, RXRa partner concentration 30 nM)", "recordedMeasurement": 2.06}
{"sequenceText": "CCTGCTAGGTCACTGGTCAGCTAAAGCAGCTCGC", "studySystem": "PPARg:RXRa 90nM:30nM, anti-RXR (NR concentration 90 nM, RXRa partner concentration 30 nM)", "recordedMeasurement": 3.18}
{"sequenceText": "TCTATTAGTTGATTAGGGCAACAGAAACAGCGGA", "studySystem": "PPARg:RXRa 90nM:30nM, anti-RXR (NR concentration 90 nM, RXRa partner concentration 30 nM)", "recordedMeasurement": 2.85}
{"sequenceText": "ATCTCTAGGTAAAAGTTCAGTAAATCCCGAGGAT", "studySystem": "PPARg:RXRa 90nM:30nM, anti-RXR (NR concentration 90 nM, RXRa partner concentration 30 nM)", "recordedMeasurement": 8.13}
{"sequenceText": "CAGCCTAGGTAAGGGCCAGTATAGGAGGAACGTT", "studySystem": "PPARg:RXRa 90nM:30nM, anti-RXR (NR concentration 90 nM, RXRa partner concentration 30 nM)", "recordedMeasurement": -0.635}
{"sequenceText": "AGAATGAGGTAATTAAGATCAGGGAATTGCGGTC", "studySystem": "PPARg:RXRa 90nM:30nM, anti-RXR (NR concentration 90 nM, RXRa partner concentration 30 nM)", "recordedMeasurement": -0.0571}
{"sequenceText": "CCTAGCAGGCCAATCTCGGTCACTCAAGGCTTGA", "studySystem": "PPARg:RXRa 90nM:30nM, anti-RXR (NR concentration 90 nM, RXRa partner concentration 30 nM)", "recordedMeasurement": -0.439}
{"sequenceText": "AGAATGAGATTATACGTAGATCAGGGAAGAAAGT", "studySystem": "PPARg:RXRa 90nM:30nM, anti-RXR (NR concentration 90 nM, RXRa partner concentration 30 nM)", "recordedMeasurement": -0.327}
{"sequenceText": "TCATATAGGTAACAGGTGAAAGTCGGTGTGGTAA", "studySystem": "PPARg:RXRa 90nM:30nM, anti-RXR (NR concentration 90 nM, RXRa partner concentration 30 nM)", "recordedMeasurement": 6.73}
{"sequenceText": "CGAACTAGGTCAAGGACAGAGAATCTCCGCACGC", "studySystem": "PPARg:RXRa 90nM:30nM, anti-RXR (NR concentration 90 nM, RXRa partner concentration 30 nM)", "recordedMeasurement": 5.63}
{"sequenceText": "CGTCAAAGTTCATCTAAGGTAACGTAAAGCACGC", "studySystem": "PPARg:RXRa 90nM:30nM, anti-RXR (NR concentration 90 nM, RXRa partner concentration 30 nM)", "recordedMeasurement": 4.22}
{"sequenceText": "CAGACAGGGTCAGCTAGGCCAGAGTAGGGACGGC", "studySystem": "PPARg:RXRa 90nM:30nM, anti-RXR (NR concentration 90 nM, RXRa partner concentration 30 nM)", "recordedMeasurement": 1.51}
